tgt: catalytic domain of human stromelysine (Homo sapiens)
Construct: enzymatic activity of the catalytic domains of human stomelysine and of neutrophil collagenase; made in house
testMethodNotes: Enzyme inhibition, catalytic domain of human stromelysine (fluorogenic substrate)
Format: biochemical
reportedConditions: carboxylic acids from Example 34; piperazine-N,N'-bis[2-ethanesulfonic acid] buffer pH=6.5; read-out: Stromelysine IC 50
pIC50: −log10 of the molar value.
Quick rule: pIC50 of at least 6 means Satisfied, below that means Not satisfied.

molecule	group
O=C(O)[C@H]1Cc2ccccc2CN1S(=O)(=O)c1ccc2oc3ccccc3c2c1 [Example 46]	Not satisfied
O=C(O)[C@H]1Cc2cc([N+](=O)[O-])ccc2CN1S(=O)(=O)c1ccc(-c2ccc(Cl)cc2)cc1 [Example 51]	Satisfied
O=C(O)[C@H]1Cc2ccccc2CN1S(=O)(=O)c1ccc(Sc2ccccc2)cc1 [Example 43]	Not satisfied

Q: Hello, I need to know if CN(C)c1ccc(-c2ccc(S(=O)(=O)N3Cc4ccccc4C[C@@H]3C(=O)O)cc2)cc1.Cl [Example 39] has measured pIC50 not below 6. Thanks!
Result: Satisfied

Q: Item O=C(O)[C@H]1Cc2ccccc2CN1S(=O)(=O)c1ccc(-c2ccccc2)cc1 [Example 34] with pIC50 of 6 or above?
Result: Satisfied

Q: Could you tell me if the measured pIC50 of O=C(c1ccccc1)c1ccc(S(=O)(=O)N2Cc3ccccc3C[C@@H]2C(=O)O)cc1 [Example 45] reaches 6 or more?
Result: Not satisfied

Q: Say whether O=C(O)[C@H]1Cc2ccc([N+](=O)[O-])cc2CN1S(=O)(=O)c1ccc(-c2ccc(Cl)cc2)cc1 [Example 50] shows pIC50 of 6 or more.
Result: Satisfied

----------
As shown below, each of these molecules has a reported melting point value.
Field: numeric (°C). Do not append units.

Quick note, melting point for O=C(O)[C@H]1Cc2ccccc2CN1S(=O)(=O)c1ccc(-c2ccccc2)cc1 landed at 205

Given item COc1ccc(S(=O)(=O)N2c3ccccc3CC2C(=O)NO)cc1 (centres unmarked) , the value recorded as its melting point is 142

Reported melting point for O=C(O)[C@H]1Cc2c([nH]c3ccccc23)CN1S(=O)(=O)c1ccc(Oc2ccccc2)cc1 was 115

----------
Reported melting point is given for each of the following molecules.

molecule	melting point
O=C(O)[C@H]1Cc2ccccc2CN1S(=O)(=O)c1ccc(Oc2ccccc2)cc1 [41 (13b)]	147 °C
O=C(O)[C@H]1Cc2ccccc2CN1S(=O)(=O)c1ccc(-c2nc3ccccc3o2)cc1	211 to 213 °C
COc1ccc(S(=O)(=O)N2Cc3cc4c(cc3CC2C(=O)NO)OCO4)cc1 (centres unmarked)	166 °C

What the record says about O=C(O)[C@H]1Cc2ccccc2CN1S(=O)(=O)c1ccc(-c2ccc(Cl)cc2)cc1 : melting point is 207 to 209 °C

melting point measured on O=C(O)[C@H]1Cc2cc3c(cc2CN1S(=O)(=O)c1ccc(Oc2ccccc2)cc1)OCO3 = 226 to 228 °C

Noted for O=C(O)[C@H]1Cc2ccccc2CN1S(=O)(=O)c1ccc(Oc2ccc(Cl)cc2)cc1 : its melting point reads 167 to 168 °C

Summary for this molecule, O=C(NO)[C@H]1Cc2c([nH]c3ccccc23)CN1S(=O)(=O)c1ccc(Oc2ccccc2)cc1 : melting point is 110 to 111 °C

// melting point value for O=C(NO)[C@H]1Cc2c([nH]c3ccccc23)CN1S(=O)(=O)c1ccc(N2CCOCC2)cc1 : 125 °C (dec.)

----------
tgt: catalytic domain of stromelysine-1 (Homo sapiens)
Construct: enzymatic activity of the catalytic domains of human stomelysine and of neutrophil collagenase
Sequence (P08254 100-272 limits assumed): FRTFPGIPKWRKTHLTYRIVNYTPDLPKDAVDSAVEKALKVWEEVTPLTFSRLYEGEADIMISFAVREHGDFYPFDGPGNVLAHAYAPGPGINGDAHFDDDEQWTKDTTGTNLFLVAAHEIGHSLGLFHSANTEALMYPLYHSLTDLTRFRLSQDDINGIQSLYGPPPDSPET
testMethodNotes: Proteoglycan degradation assay (bovine aggrecan, ELISA with antibody 5-D-4)
reportedConditions: bovine nasal proteoglycane, 60 ng stromelysine-1 catalytic domain, MES pH 6.0, RT 3 h
Where a name gives a salt, the structure may show the parent alone.
valueType: pIC50
Reminder that pIC50 means the negative base-10 logarithm of the concentration expressed in mol/L.

Entry O=C(c1ccccc1)c1ccc(S(=O)(=O)N2Cc3ccccc3C[C@@H]2C(=O)NO)cc1 [Example 18] , pIC50 reported as 7.39

Just so you know, measured pIC50 for COc1ccc(S(=O)(=O)N2Cc3nc[nH]c3C[C@@H]2C(=O)NO)cc1 [Example 29, hydrochloride] came out at 7.60

Just so you know, measured pIC50 for O=C(Nc1ccc(S(=O)(=O)N2Cc3ccccc3C[C@@H]2C(=O)NO)cc1)OCc1ccccc1 [Example 9] came out at 5.80

For this molecule ( CN(C)c1ccc(Oc2ccc(S(=O)(=O)N3Cc4ccccc4C[C@@H]3C(=O)NO)cc2)cc1 [Example 14] ), measured pIC50 is 8.17

So for O=C(NO)[C@H]1Cc2ccccc2CN1S(=O)(=O)c1ccc(Oc2ccccc2)cc1 [Example 13c] , the logged pIC50 turned out to be 7.29

Documented pIC50 of O=C(NO)C1Cc2ccccc2CN1S(=O)(=O)c1ccc(-c2ccccc2)cc1 (stereo not shown) [Example 2] : 7.07

Measured pIC50 of CCOC(=O)Oc1ccc2c(c1)CN(S(=O)(=O)c1ccc(OC)cc1)[C@@H](C(=O)NO)C2 [Example 21] : 7.19

----------
Each entry below carries its recorded IC50.
tgt: catalytic domain of human stromelysine (Homo sapiens)
Construct: enzymatic activity of the catalytic domains of human stomelysine and of neutrophil collagenase; made in house
testMethodNotes: Enzyme inhibition, catalytic domain of human stromelysine (fluorogenic substrate)
Assay type: biochemical
reportedConditions: hydroxamic acids up to and including Example 33; tris/HCl buffer pH=7.5; read-out: Stromelysine IC 50
Counter-ions that a name gives are not always drawn.
Number only, in nM; omit the unit.

Completed entries (count: 2):
compound	number
COc1ccc(S(=O)(=O)N2Cc3cc([N+](=O)[O-])ccc3CC2C(=O)NO)cc1 (stereo not drawn) [Example 23]	80
O=C(NO)[C@H]1Cc2c([nH]c3ccccc23)CN1S(=O)(=O)c1ccc(N2CCOCC2)cc1 [Example 33]	300

# ---- query compound ----
Entry COc1ccc(S(=O)(=O)N2Cc3nc[nH]c3C[C@@H]2C(=O)NO)cc1 [Example 29, hydrochloride] : IC50 on catalytic domain of human stromelysine (Homo sapiens) = 20

----------
tgt: catalytic domain of human stromelysine (Homo sapiens, UniProt P08254)
Construct: enzymatic activity of the catalytic domains of human stomelysine and of neutrophil collagenase; made in house
Sequence (P08254 100-272 limits assumed): as above
testMethodNotes: Enzyme inhibition, catalytic domain of human stromelysine (fluorogenic substrate)
Assay type: biochemical
reportedConditions: carboxylic acids from Example 34; piperazine-N,N'-bis[2-ethanesulfonic acid] buffer pH=6.5; read-out: Stromelysine IC 50
Recorded pIC50 by entry
// pIC50: -log10(molar conc.)

molecule	pIC50
O=C(O)[C@H]1Cc2ccccc2CN1S(=O)(=O)c1ccc(OCc2ccc(F)cc2)cc1	6.70

Value of measured pIC50 for the entry O=C(O)[C@H]1Cc2ccccc2CN1S(=O)(=O)c1ccc(Oc2ccccc2)cc1 [41 (13b)] : 6.70

Kindly note the recorded pIC50 for O=C(O)[C@H]1Cc2ccccc2CN1S(=O)(=O)c1ccc(Oc2ccc(Cl)cc2)cc1 , which is 6.30

Entry O=C(O)[C@H]1Cc2ccccc2CN1S(=O)(=O)c1ccc(-c2ccc(Cl)cc2)cc1 , pIC50 reported as 7.00

The measured pIC50 associated with O=C(O)[C@H]1Cc2cc([N+](=O)[O-])ccc2CN1S(=O)(=O)c1ccc(-c2ccc(F)cc2)cc1 reads 6.30

Per the records, this molecule ( O=C(O)[C@H]1Cc2c([nH]c3ccccc23)CN1S(=O)(=O)c1ccc(Oc2ccccc2)cc1 ) has pIC50 equal to 5.70

----------
tgt: catalytic domain of human stromelysine (Homo sapiens, UniProt P08254)
Construct: enzymatic activity of the catalytic domains of human stomelysine and of neutrophil collagenase; made in house
testMethodNotes: Enzyme inhibition, catalytic domain of human stromelysine (fluorogenic substrate)
Assay type: biochemical
reportedConditions: hydroxamic acids up to and including Example 33; tris/HCl buffer pH=7.5; read-out: Stromelysine IC 50
valueType: log10 of IC50 (log10 of the value in nM)
A difference of one corresponds to tenfold IC50; all values are log10 with IC50 in nM.

compound	log10 of IC50
O=C(c1ccccc1)c1ccc(S(=O)(=O)N2Cc3ccccc3C[C@@H]2C(=O)NO)cc1	1.48
CN(C)c1ccc(Oc2ccc(S(=O)(=O)N3Cc4ccccc4C[C@@H]3C(=O)NO)cc2)cc1	1.48
CCOC(=O)Nc1cccc(S(=O)(=O)N2Cc3ccccc3CC2C(=O)NO)c1 (centres unmarked)	3.78
O=C(NO)C1Cc2ccccc2CN1S(=O)(=O)c1ccc(-c2ccccc2)cc1 (centres unmarked)	1.30
COc1ccc(S(=O)(=O)Oc2ccc3c(c2)CN(S(=O)(=O)c2ccc(OC)cc2)[C@@H](C(=O)NO)C3)cc1	1.48
O=C(Nc1ccc(S(=O)(=O)N2Cc3ccccc3C[C@@H]2C(=O)NO)cc1)OCc1ccccc1	2.60
CCOC(=O)Nc1ccc(S(=O)(=O)N2Cc3ccccc3CC2C(=O)NO)cc1 (centres unmarked)	2.70
O=C(NO)C1Cc2ccccc2CN1S(=O)(=O)CCc1ccccc1 (centres unmarked)	2.00

Record COc1ccc(S(=O)(=O)N2Cc3c(cc(OC)c(OC)c3OC)CC2C(=O)NO)cc1 (centres unmarked) / catalytic domain of human stromelysine (Homo sapiens, UniProt P08254), log10 of IC50 recorded as 2.60

The recorded log10 of IC50 with catalytic domain of human stromelysine (Homo sapiens, UniProt P08254) for CCOC(=O)Oc1ccc2c(c1)CN(S(=O)(=O)c1ccc(OC)cc1)[C@@H](C(=O)NO)C2 was 1.30

The reported catalytic domain of human stromelysine (Homo sapiens, UniProt P08254) log10 of IC50 of CN(C)c1cccc2c(S(=O)(=O)N3Cc4ccccc4C[C@@H]3C(=O)NO)cccc12 is 2.60

Item O=C(NO)C1Cc2ccccc2CN1S(=O)(=O)N1CCOCC1 (centres unmarked) was tested on catalytic domain of human stromelysine (Homo sapiens, UniProt P08254); the reported log10 of IC50 is 3.78

Considering O=C(NO)[C@H]1Cc2c([nH]c3ccccc23)CN1S(=O)(=O)c1ccc(Oc2ccccc2)cc1 , its log10 of IC50 with catalytic domain of human stromelysine (Homo sapiens, UniProt P08254) was recorded as 1.78
